Please provide measured EC50 for the entries that follow.
biological target: DLL4 (human, UniProt Q9NR61); experiment: ELISA
Sequence (Q9NR61 27-524): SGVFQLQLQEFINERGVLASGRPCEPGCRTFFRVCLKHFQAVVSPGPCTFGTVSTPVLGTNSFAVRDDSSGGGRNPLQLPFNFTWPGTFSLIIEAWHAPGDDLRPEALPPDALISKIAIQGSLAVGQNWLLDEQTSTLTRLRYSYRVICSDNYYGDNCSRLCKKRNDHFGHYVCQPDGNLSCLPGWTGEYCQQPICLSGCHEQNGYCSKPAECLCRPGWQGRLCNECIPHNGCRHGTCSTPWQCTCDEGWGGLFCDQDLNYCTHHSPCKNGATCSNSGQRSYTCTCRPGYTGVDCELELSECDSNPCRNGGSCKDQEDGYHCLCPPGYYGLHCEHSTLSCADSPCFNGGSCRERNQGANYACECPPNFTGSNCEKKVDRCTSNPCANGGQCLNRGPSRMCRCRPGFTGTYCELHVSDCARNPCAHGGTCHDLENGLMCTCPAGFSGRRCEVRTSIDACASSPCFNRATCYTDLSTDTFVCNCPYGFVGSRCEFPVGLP
# include the unit after the value

Recorded EC50 (binder DVD449 DLL4 arm (antibody, V domains shown, DVD-Ig outer) VH: QVQLVQSGAEVKKPGASVKISCKASGYSFTAYYIHWVKQAPGQGLEWIGYISSYNGATNYNQKFKGRVTFTTDTSTSTAYMELRSLRSDDTAVYYCARDYDYDVGMDYWGQGTLVTVSS VL: DIVMTQSPDSLAVSLGERATISCRASESVDNYGISFMKWFQQKPGQPPKLLIYAASNQGSGVPDRFSGSGSGTDFTLTISSLQAEDVAVYYCQQSKEVPWTFGGGTKVEIKR ): 0.36 nM

Recorded EC50 (binder DVD501 DLL4 arm (antibody, V domains shown, DVD-Ig outer) VH: EVQLQQSGPELVKPGASVKMSCKASGYTFTSYVINWVKQKPGQGLEWIGLINPYNDGTKYNEKFKVKATLTSDKSSSTAYMELSSLTSEDSAVYYCASYYYGSRYYFDYWGQGTTLTVSS VL: DIQMTQSSSYLSVSLGGRVTITCKASDHINNWLAWYQQKPGNAPRLLISGATSLETGVPSRFSGSGSGKDYTLSITSLQTEDVATYYCQQYWSIPLTFGAGTKLELKR ): 0.18 nM

Recorded EC50 (binder DVD482 DLL4 arm (antibody, DVD-Ig inner) chain 1: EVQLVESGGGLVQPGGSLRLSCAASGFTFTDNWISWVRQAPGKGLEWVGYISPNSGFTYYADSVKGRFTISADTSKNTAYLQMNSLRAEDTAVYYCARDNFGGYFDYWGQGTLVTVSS chain 2: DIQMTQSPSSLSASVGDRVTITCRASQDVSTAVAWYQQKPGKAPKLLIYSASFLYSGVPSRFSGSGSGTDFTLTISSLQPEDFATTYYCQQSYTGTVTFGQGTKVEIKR ): 0.36 nM
